# experiment: Acute toxicity (LD50), method of Litchfield and Wilcoxson
# assay-conditions: in vivo, ip
result-type: LD50
Number plus unit, in that order.

Before answering, review these 2 worked examples.
{"molecule": "CCC(C)N(CC(O)c1cccn1Cc1ccccc1Cl)C(C)CC (stereo not shown) [VIMINOLO]", "result": "167 mg/kg"}
{"molecule": "CC[C@@H](C)N(CC(O)c1cccn1Cc1ccccc1F)[C@H](C)CC (single isomer, unassigned) [Isomer A]", "result": "384 mg/kg"}

Recorded result, CC[C@@H](C)N(CC(O)c1cccn1Cc1ccccc1C(F)(F)F)[C@H](C)CC (single isomer, unassigned) [Isomer B] , LD50: 358 mg/kg

Recorded result, CCC(C)N(CC(O)c1cccn1Cc1ccccc1Cl)C(C)CC (single isomer, unassigned) ["R2 " Compound] , LD50: 230 mg/kg

----------
Recorded measurements of T.I. (therapeutic index), one per entry
# experiment: Therapeutic index (LD50/ED50 tail flick)
# Type: in vivo
# assay-conditions: ratio of LD50/ED50, ED50 from the tail flick test
// no unit string in output, number only

Before answering, review these 3 worked examples.
{"molecule": "CC[C@@H](C)N(CC(O)c1cccn1Cc1ccccc1C(F)(F)F)[C@H](C)CC (single isomer, unassigned) [Isomer B]", "T.I. (therapeutic index)": 942}
{"molecule": "CCC(C)N(CC(O)c1cccn1Cc1ccccc1Cl)C(C)CC (stereo not shown) [VIMINOLO]", "T.I. (therapeutic index)": 13.36}
{"molecule": "CC[C@@H](C)N(CC(O)c1cccn1Cc1ccccc1F)[C@H](C)CC (single isomer, unassigned) [Isomer A]", "T.I. (therapeutic index)": 872}

Now for a further molecule.
Recorded result, CCC(C)N(CC(O)c1cccn1Cc1ccccc1Cl)C(C)CC (single isomer, unassigned) ["R2 " Compound] , T.I. (therapeutic index): 324
